- testSummary: Stability in cynomolgus monkey fecal homogenate
- Type: in vitro ADME
- experimentalConditions: 20% fecal homogenate (supernatant), pH 6.8, 20% cynomolgus monkey fecal homogenate, anaerobic, 37° C., read-out: t½: Monkey Feces anaerobic (converted)
Bridge positions count the residues as written; N and C are the ends. Square brackets hold non-standard residues; d marks the D form. Peptide text beside a SMILES is read from it. Trp(7-Me) = Cc1cccc2c(C[C@H](N)C(=O)O)c[nH]c12; 2Nal = N[C@@H](Cc1ccc2ccccc2c1)C(=O)O; AEF = NCCOc1ccc(C[C@H](N)C(=O)O)cc1; Pen = CC(C)(S)[C@H](N)C(=O)O; hLeu = CC(C)CC[C@H](N)C(=O)O; αMeK = C[C@](N)(CCCCN)C(=O)O
measuredEndpoint: half-life at 20 μM

INSERT INTO assay_data (molecule, measuredendpoint, reading) VALUES
  ('CC(=O)NCCCC[C@@H]1NC(=O)[C@H](Cc2c[nH]c3c(C)cccc23)NC(=O)[C@H]([C@@H](C)O)NC(=O)[C@H](CCC(C)C)NC(=O)[C@@H](NC(C)=O)C(C)(C)SSC(C)(C)[C@@H](C(=O)N[C@@H](Cc2ccc(OCCN)cc2)C(=O)N[C@@H](Cc2ccc3ccccc3c2)C(=O)N[C@@](C)(CCCCN)C(=O)N[C@@H](CCCCNC(C)=O)C(=O)N[C@@H](CC(N)=O)C(=O)N[C@H](CC(C)C)C(N)=O)NC1=O [compound 337] (Ac-[Pen][hLeu]T[Trp(7-Me)]K(Ac)[Pen][AEF][2Nal][αMeK]K(Ac)N[dL]-NH2; disulfide 1-6)', 'half-life at 20 μM', '> 24 h');

====

Measured half-life at 20 μM by item
- testSummary: Stability in cynomolgus monkey fecal homogenate
- Type: in vitro ADME
- experimentalConditions: 20% fecal homogenate (supernatant), pH 6.8, 20% cynomolgus monkey fecal homogenate, anaerobic, 37° C., read-out: t½: Monkey Feces anaerobic (converted)
Bridge positions count the residues as written; N and C are the ends. Square brackets hold non-standard residues; d marks the D form. Peptide text beside a SMILES is read from it. Trp(7-Me) = Cc1cccc2c(C[C@H](N)C(=O)O)c[nH]c12; 2Nal = N[C@@H](Cc1ccc2ccccc2c1)C(=O)O; AEF = NCCOc1ccc(C[C@H](N)C(=O)O)cc1; Pen = CC(C)(S)[C@H](N)C(=O)O; αMeK = C[C@](N)(CCCCN)C(=O)O
measuredEndpoint: half-life at 20 μM

INSERT INTO measurements (compound, reading) VALUES
  ('CC(=O)NCCCC[C@H](NC(=O)[C@](C)(CCCCN)NC(=O)[C@H](Cc1ccc2ccccc2c1)NC(=O)[C@H](Cc1ccc(OCCN)cc1)NC(=O)[C@H]1NC(=O)[C@H](CCC(N)=O)NC(=O)[C@H](Cc2c[nH]c3ccc(C#N)cc23)NC(=O)[C@H]([C@@H](C)O)NC(=O)[C@H](CC(N)=O)NC(=O)[C@@H](NC(C)=O)C(C)(C)SSC1(C)C)C(=O)N[C@@H](CC(N)=O)C(=O)N[C@H](CCCCN)C(N)=O [compound 296]', '> 24 h'),
  ('CC(=O)NCCCC[C@@H]1NC(=O)[C@H](Cc2c[nH]c3c(C)cccc23)NC(=O)[C@H]([C@@H](C)O)NC(=O)[C@H](CO)NC(=O)[C@@H](NC(C)=O)C(C)(C)SSC(C)(C)[C@@H](C(=O)N[C@@H](Cc2ccc(OCCN)cc2)C(=O)N[C@@H](Cc2ccc3ccccc3c2)C(=O)N[C@@](C)(CCCCN)C(=O)N[C@@H](CCCCNC(C)=O)C(=O)N[C@@H](CC(N)=O)C(=O)N[C@H](CC(C)C)C(N)=O)NC1=O [compound 334] (Ac-[Pen]ST[Trp(7-Me)]K(Ac)[Pen][AEF][2Nal][αMeK]K(Ac)N[dL]-NH2; disulfide 1-6)', '> 24 h'),
  ('CC(=O)NCCCC[C@@H]1NC(=O)[C@H](Cc2c[nH]c3c(C)cccc23)NC(=O)[C@H]([C@@H](C)O)NC(=O)[C@@H]2CCCN2C(=O)[C@@H](NC(C)=O)C(C)(C)SSC(C)(C)[C@@H](C(=O)N[C@@H](Cc2ccc(OCCN)cc2)C(=O)N[C@@H](Cc2ccc3ccccc3c2)C(=O)N[C@@](C)(CCCCN)C(=O)N[C@@H](CCCCNC(C)=O)C(=O)N[C@@H](CC(N)=O)C(=O)N[C@H](CC(C)C)C(N)=O)NC1=O [compound 333] (Ac-[Pen]PT[Trp(7-Me)]K(Ac)[Pen][AEF][2Nal][αMeK]K(Ac)N[dL]-NH2; disulfide 1-6)', '24 h'),
  ('COc1cccc2c(C[C@@H]3NC(=O)[C@H]([C@@H](C)O)NC(=O)[C@H](CC(N)=O)NC(=O)[C@@H](NC(C)=O)C(C)(C)SSC(C)(C)[C@@H](C(=O)N[C@@H](Cc4ccc(OCCN)cc4)C(=O)N[C@@H](Cc4ccc5ccccc5c4)C(=O)N[C@@](C)(CCCCN)C(=O)N[C@@H](CCCCNC(C)=O)C(=O)N[C@@H](CC(N)=O)C(=O)N[C@H](CCCCN)C(N)=O)NC(=O)[C@H](CCCCNC(C)=O)NC3=O)c[nH]c12 [compound 299]', '> 24 h'),
  ('CC(=O)NCCCC[C@@H]1NC(=O)[C@H](Cc2c[nH]c3c(C)cccc23)NC(=O)[C@H]([C@@H](C)O)NC(=O)[C@H](CC(N)=O)NC(=O)[C@@H](NC(C)=O)C(C)(C)SSC(C)(C)[C@@H](C(=O)N[C@@H](Cc2ccc(OCCN)cc2)C(=O)N[C@@H](Cc2ccc3ccccc3c2)C(=O)N[C@@](C)(CCCCN)C(=O)N[C@@H](CCCCNC(=O)CC(F)(F)F)C(=O)N[C@@H](CC(N)=O)C(=O)N[C@H](CC(C)C)C(N)=O)NC1=O [compound 360]', '> 24 h');

====

Reported SIF t½ by item:
- testSummary: Stability in simulated intestinal fluid (SIF)
- Type: in vitro ADME
- experimentalConditions: simulated intestinal fluid with pancreatin, pH 6.8, 37° C., 20 μM; matrix is 100 fold dilution of standard SIF concentration
measuredEndpoint: SIF t½ (h)

INSERT INTO measurements (smilesrecord, unitsofmeasure, reading) VALUES
  ('CC(=O)NCCCC[C@@H]1NC(=O)[C@@H](NC(C)=O)C(C)(C)SSC(C)(C)[C@@H](C(=O)N[C@@H](Cc2ccc(OCCN)cc2)C(=O)N[C@@H](Cc2ccc3ccccc3c2)C(=O)N[C@@](C)(CCCCN)C(=O)N[C@@H](CCCCNC(C)=O)C(=O)N[C@@H](CC(N)=O)C(=O)NCCC(N)=O)NC(=O)[C@H](CCC(N)=O)NC(=O)[C@H](Cc2c[nH]c3c(C)cccc23)NC(=O)[C@H]([C@@H](C)O)NC1=O', 'h', 24),
  ('COc1cccc2c(C[C@@H]3NC(=O)[C@H]([C@@H](C)O)NC(=O)[C@H](CC(N)=O)NC(=O)[C@@H](NC(C)=O)C(C)(C)SSC(C)(C)[C@@H](C(=O)N[C@@H](Cc4ccc(OCCN)cc4)C(=O)N[C@@H](Cc4ccc5ccccc5c4)C(=O)N[C@@](C)(CCCCN)C(=O)N[C@@H](CCCCNC(C)=O)C(=O)N[C@@H](CC(N)=O)C(=O)N[C@H](CCCCN)C(N)=O)NC(=O)[C@H](CCCCNC(C)=O)NC3=O)c[nH]c12', 'h', 24);

====

Recorded half-life at 20 μM for the following molecules
- testSummary: Stability in cynomolgus monkey fecal homogenate
- Type: in vitro ADME
- experimentalConditions: 20% fecal homogenate (supernatant), pH 6.8, 20% cynomolgus monkey fecal homogenate, anaerobic, 37° C., read-out: t½: Monkey Feces anaerobic (converted)
Bridge positions count the residues as written; N and C are the ends. Square brackets hold non-standard residues; d marks the D form. Peptide text beside a SMILES is read from it. Trp(7-Me) = Cc1cccc2c(C[C@H](N)C(=O)O)c[nH]c12; 2Nal = N[C@@H](Cc1ccc2ccccc2c1)C(=O)O; AEF = NCCOc1ccc(C[C@H](N)C(=O)O)cc1; Pen = CC(C)(S)[C@H](N)C(=O)O; αMeK = C[C@](N)(CCCCN)C(=O)O
measuredEndpoint: half-life at 20 μM

INSERT INTO measurements (molecule, reading) VALUES
  ('CC(=O)NCCCC[C@H](NC(=O)[C@](C)(CCCCN)NC(=O)[C@H](Cc1ccc2ccccc2c1)NC(=O)[C@H](Cc1ccc(OCCN)cc1)NC(=O)[C@H]1NC(=O)[C@H](CCCCNC(=O)C2CCCCC2)NC(=O)[C@H](Cc2c[nH]c3c(C)cccc23)NC(=O)[C@H]([C@@H](C)O)NC(=O)[C@H](CC(N)=O)NC(=O)[C@@H](NC(C)=O)C(C)(C)SSC1(C)C)C(=O)N[C@@H](CC(N)=O)C(=O)N[C@H](CC(C)C)C(N)=O', '> 24 h'),
  ('CC(=O)NCCCC[C@@H]1NC(=O)[C@H](Cc2c[nH]c3c(C)cccc23)NC(=O)[C@H]([C@@H](C)O)NC(=O)CNC(=O)[C@@H](NC(C)=O)C(C)(C)SSC(C)(C)[C@@H](C(=O)N[C@@H](Cc2ccc(OCCN)cc2)C(=O)N[C@@H](Cc2ccc3ccccc3c2)C(=O)N[C@@](C)(CCCCN)C(=O)N[C@@H](CCCCNC(C)=O)C(=O)N[C@@H](CC(N)=O)C(=O)N[C@H](CC(C)C)C(N)=O)NC1=O [compound 329] (Ac-[Pen]GT[Trp(7-Me)]K(Ac)[Pen][AEF][2Nal][αMeK]K(Ac)N[dL]-NH2; disulfide 1-6)', '> 24 h');
